Sourced from patent US20140235617A1

System: genotype Ib HCV replicon
Test: HCV replicon luciferase assay, monotherapy and triple combination studies
Assay type: cell-based
Conditions: Hepatitis C virus, 72 h, monotherapy, 3 days, Expt 1-3; read-out: NS5A Inhibitor EC50
experimental-readout: EC50

1) COC(=O)N[C@H](C(=O)N1CCCC1c1ncc(-c2ccc(-c3ccc(-c4cnc(C5CCCN5C(=O)[C@@H](NC(=O)OC)C(C)C)[nH]4)cc3)cc2)[nH]1)C(C)C (stereo partly shown) :: 2 pM
